assay.remarks: Plasma pharmacokinetics of repeat-dose intravenous micafungin in young infants
Format: in vivo, human
reported.conditions: human, plasma, iv, CLss/wt, mean (SD), overall (7 and 10 mg/kg/day groups), day 4, n=12; SD
*1 amine or outer side, *2 acyl side, *3 side chain or, on linkers, in order; H or OH if unused. Where a SMILES comes first, the peptide text is derived from it. Bridges are numbered along the chain shown (N, C = ends). [ ]: non-standard residue; d: D form. The star is where a group is joined. hTyr(3S-OH,4S-OH,3'-OSO3H) = N[C@H](C(=O)O)[C@H](O)[C@@H](O)c1ccc(O)c(OS(=O)(=O)O)c1; Orn(4R-OH,5R-OH) = O=C([C@H](C[C@@H](O)[C@@H](O)N[*:3])N[*:1])[*:2]; Pro(3S-OH,4S-Me) = C[C@H]1CN[C@H](C(=O)O)[C@H]1O; X1 = CCCCCOc1ccc(-c2cc(-c3ccc(C(=O)*)cc3)no2)cc1; Gln(3R-OH) = NC(=O)C[C@@H](O)[C@H](N)C(=O)O; Hyp = O=C(O)[C@@H]1C[C@@H](O)CN1

compound | clearance
CCCCCOc1ccc(-c2cc(-c3ccc(C(=O)N[C@H]4C[C@@H](O)[C@@H](O)NC(=O)[C@@H]5[C@@H](O)[C@@H](C)CN5C(=O)[C@H]([C@H](O)CC(N)=O)NC(=O)[C@H]([C@H](O)[C@@H](O)c5ccc(O)c(OS(=O)(=O)O)c5)NC(=O)[C@@H]5C[C@@H](O)CN5C(=O)[C@H]([C@@H](C)O)NC4=O)cc3)no2)cc1 [micafungin] (X1-[Orn(4R-OH,5R-OH)]T[Hyp][hTyr(3S-OH,4S-OH,3'-OSO3H)][Gln(3R-OH)][Pro(3S-OH,4S-Me)]; lactam 1-C) | 0.5 mL/min/kg

###

assay.remarks: Plasma pharmacokinetics of repeat-dose intravenous micafungin in young infants
Assay type: in vivo, human
reported.conditions: human, plasma, iv, 7 mg/kg/day, Vdss/wt, median (range), 7 mg/kg/day, IV, day 4, infants ≥ 1,000 g, n=6
*1 amine or outer side, *2 acyl side, *3 side chain or, on linkers, in order; H or OH if unused. Where a SMILES comes first, the peptide text is derived from it. Bridges are numbered along the chain shown (N, C = ends). [ ]: non-standard residue; d: D form. The star is where a group is joined. hTyr(3S-OH,4S-OH,3'-OSO3H) = N[C@H](C(=O)O)[C@H](O)[C@@H](O)c1ccc(O)c(OS(=O)(=O)O)c1; Orn(4R-OH,5R-OH) = O=C([C@H](C[C@@H](O)[C@@H](O)N[*:3])N[*:1])[*:2]; Pro(3S-OH,4S-Me) = C[C@H]1CN[C@H](C(=O)O)[C@H]1O; X1 = CCCCCOc1ccc(-c2cc(-c3ccc(C(=O)*)cc3)no2)cc1; Gln(3R-OH) = NC(=O)C[C@@H](O)[C@H](N)C(=O)O; Hyp = O=C(O)[C@@H]1C[C@@H](O)CN1

molecule | Vd [L/kg]
CCCCCOc1ccc(-c2cc(-c3ccc(C(=O)N[C@H]4C[C@@H](O)[C@@H](O)NC(=O)[C@@H]5[C@@H](O)[C@@H](C)CN5C(=O)[C@H]([C@H](O)CC(N)=O)NC(=O)[C@H]([C@H](O)[C@@H](O)c5ccc(O)c(OS(=O)(=O)O)c5)NC(=O)[C@@H]5C[C@@H](O)CN5C(=O)[C@H]([C@@H](C)O)NC4=O)cc3)no2)cc1 [micafungin] (X1-[Orn(4R-OH,5R-OH)]T[Hyp][hTyr(3S-OH,4S-OH,3'-OSO3H)][Gln(3R-OH)][Pro(3S-OH,4S-Me)]; lactam 1-C) | 0.341
